- Assayed target: T1, PUF4 RNA-binding domain (Saccharomyces cerevisiae, UniProt P25339 537-888)
- T1 sequence: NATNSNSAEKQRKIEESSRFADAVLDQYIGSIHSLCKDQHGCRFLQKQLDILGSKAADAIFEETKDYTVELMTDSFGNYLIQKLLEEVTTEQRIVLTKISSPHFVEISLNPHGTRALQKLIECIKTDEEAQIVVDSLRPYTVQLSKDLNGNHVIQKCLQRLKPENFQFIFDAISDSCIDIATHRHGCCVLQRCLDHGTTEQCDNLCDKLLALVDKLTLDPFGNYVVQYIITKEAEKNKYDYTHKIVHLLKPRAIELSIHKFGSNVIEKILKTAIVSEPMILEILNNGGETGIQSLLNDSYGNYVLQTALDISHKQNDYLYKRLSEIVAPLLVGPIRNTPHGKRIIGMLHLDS
- Test protocol: Mg; RNA-MaP; 20 mM Na-HEPES pH 7.4, 30 mM KOAc, 0.75 mM MgCl2, 0.1% Tween-20, 5% glycerol, 0.1 mg/mL BSA, 2 mM DTT; 25 C; 0.0125-409.6 nM protein
- Measurement context: tags: N-His6-TEV cleaved; C-SNAP kept, Cy3B-labelled; label: tethered on chip by stalled RNA polymerase
Measurement kind: pKd
Field pKd (float): negative decimal logarithm of the concentration in molar.

Examples from the recorded data:
Ic_S2_P4E.1_K4.1_C4.1_H4.1_A4.1_[T5C]_[A6G]_[T7G]_F4.1_[A9T]_T4.1 (ssRNA) RNA: UUUGAUUAAUAUGAUAUCGUUCUUUCUUGUACGGUUUUCUUUCUCGAUAUCAUAUUAAUCUUU; 6.96
Id_iii_S2_P3E.8_K3.4_C3.3_[T-3C]_H3.1_A3.2_F3.1_T3.2 (ssRNA) RNA: UUUGAUUAAUAUGAUAUCGUUCUUUCUCCUUGUAAAUAUAUUCUUUCUCGAUAUCAUAUUAAUCUUU; 8.59

API: the following record is the query input.
What does the data say about its pKd? Entry: UCUCUUACUAUAUAUAUCUCUCUU (ssRNA) [Id_ii_S1_P3E.3_K3.2_C3.2_[C-2A]_[T-1C]_H3.2_A3.1_F3.1_T3.2_[A10C]]
6.05

Cited source: paper PMC9352680
